FYI, the data here is from the supplement of paper PMC10065799.

# TEST_TARGET: FGFR1 (UniProt P11362)
# Sequence (P11362 whole entry, looked up): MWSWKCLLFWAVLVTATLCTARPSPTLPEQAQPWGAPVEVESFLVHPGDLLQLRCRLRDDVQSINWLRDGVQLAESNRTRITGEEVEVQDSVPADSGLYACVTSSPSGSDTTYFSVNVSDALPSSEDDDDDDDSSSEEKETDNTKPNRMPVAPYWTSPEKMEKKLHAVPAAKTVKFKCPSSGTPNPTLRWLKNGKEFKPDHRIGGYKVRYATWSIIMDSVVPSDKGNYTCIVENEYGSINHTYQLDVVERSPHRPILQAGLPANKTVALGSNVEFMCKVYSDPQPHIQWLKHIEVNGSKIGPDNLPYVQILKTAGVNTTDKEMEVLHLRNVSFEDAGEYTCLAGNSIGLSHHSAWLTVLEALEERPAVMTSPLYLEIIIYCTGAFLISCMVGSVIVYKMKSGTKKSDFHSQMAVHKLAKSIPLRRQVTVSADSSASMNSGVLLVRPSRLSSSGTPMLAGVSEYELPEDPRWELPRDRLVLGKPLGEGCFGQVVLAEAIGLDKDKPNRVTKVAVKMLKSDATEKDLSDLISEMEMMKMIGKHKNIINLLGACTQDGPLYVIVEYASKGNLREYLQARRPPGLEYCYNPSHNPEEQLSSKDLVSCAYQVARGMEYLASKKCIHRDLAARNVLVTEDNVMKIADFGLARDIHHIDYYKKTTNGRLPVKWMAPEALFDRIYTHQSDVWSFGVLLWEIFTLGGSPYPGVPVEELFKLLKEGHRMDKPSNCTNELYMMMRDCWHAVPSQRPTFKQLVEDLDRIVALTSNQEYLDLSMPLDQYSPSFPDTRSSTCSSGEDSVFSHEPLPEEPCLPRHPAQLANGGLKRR
# TEST_DETAILS: phosphorylation enrichment, bacterial display (enrichment ratio); higher = better substrate or ligand; peptides without Tyr show the background;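 note: 11-residue human phosphosite peptides and single-mutation variants displayed on the E. coli surface, counted by deep sequencing, each peptide's frequency after selection divided by its frequency in the unselected input library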;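 note: frequency after pTyr selection over input frequency; kinase dosed for 20-30% of maximal phosphorylation in three min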

SEQUENCE: VASSLYDILAR [GLB1_Y294]
phosphorylation enrichment: 0.37
//
SEQUENCE: YHIDHYLGKEM [G6PD_Y202_R198H]
phosphorylation enrichment: 0.673
//
SEQUENCE: AHPIIYEIIEA [PYKtide_E_2014]
phosphorylation enrichment: 2.02
//
SEQUENCE: RPSELYYSKIG [SMG1_Y2253]
phosphorylation enrichment: 3.1
//
SEQUENCE: QQLQGYIPSNF [FRK_Y99_YF]
phosphorylation enrichment: 0.884
//
SEQUENCE: SVSVNYGDLVQ [GRAP_Y101_Q104L]
phosphorylation enrichment: 0.565
//
SEQUENCE: FSCLPYGRLAF [SLC52A2_Y305_YF]
phosphorylation enrichment: 0.71
//
SEQUENCE: RGFRVCFTPDS [PTPRF_Y450_Y450C_YF]
phosphorylation enrichment: 0.337
//
SEQUENCE: LSAPEYGPKLK [TBC1D14_Y46]
phosphorylation enrichment: 0.58
//
SEQUENCE: CFTGKYTLPPG [HSPB1_Y142_R140G]
phosphorylation enrichment: 0.447
//
SEQUENCE: VNKIYYPDFIV [LIG3_Y768]
phosphorylation enrichment: 8.82
//
SEQUENCE: QITQVCGFYDE [PPP2CA_Y127_Y127C]
phosphorylation enrichment: 0.648
//
SEQUENCE: CTTIHYNFMCN [TP53_Y234_Y236F]
phosphorylation enrichment: 0.509
//
SEQUENCE: SLGSPYGQPPR [PDLIM4_Y137]
phosphorylation enrichment: 0.426

###

# Tested on: c-Src
# TEST_DETAILS: phosphorylation enrichment, bacterial display (enrichment ratio); higher = better substrate or ligand; peptides without Tyr show the background
This section presents sequences with their documented phosphorylation enrichment values.
OBSERVABLE: phosphorylation enrichment

SEQUENCE: TTTQAYRVNER [PRKN_Y391_D394N]
TEST_TARGET: c-Src
OBSERVABLE: phosphorylation enrichment
OBSERVED_VALUE: 0.473

SEQUENCE: SLDLSYYPTSS [EMD_Y181]
TEST_TARGET: c-Src
OBSERVABLE: phosphorylation enrichment
OBSERVED_VALUE: 0.583

SEQUENCE: SSFSGYIMMPN [LEF1_Y114_YF]
TEST_TARGET: c-Src
OBSERVABLE: phosphorylation enrichment
OBSERVED_VALUE: 0.4

SEQUENCE: VASSLYDILAR [GLB1_Y294]
TEST_TARGET: c-Src
OBSERVABLE: phosphorylation enrichment
OBSERVED_VALUE: 2.84

SEQUENCE: VIIVLYFSLWK [SLC6A2_Y249_V245I]
TEST_TARGET: c-Src
OBSERVABLE: phosphorylation enrichment
OBSERVED_VALUE: 0.386

SEQUENCE: VSTAVYKRFPS [BEST1_Y148]
TEST_TARGET: c-Src
OBSERVABLE: phosphorylation enrichment
OBSERVED_VALUE: 0.395

SEQUENCE: RIGRKCKKVRF [F8_Y442_Y442C]
TEST_TARGET: c-Src
OBSERVABLE: phosphorylation enrichment
OBSERVED_VALUE: 0.794

SEQUENCE: WQQQSYLDSGI [CTNNB1_Y30]
TEST_TARGET: c-Src
OBSERVABLE: phosphorylation enrichment
OBSERVED_VALUE: 0.38

SEQUENCE: DMLFQYLKQIE [RPAP3_Y569_YF]
TEST_TARGET: c-Src
OBSERVABLE: phosphorylation enrichment
OBSERVED_VALUE: 0.468

SEQUENCE: EHLNRYISDTF [TTLL10_Y446]
TEST_TARGET: c-Src
OBSERVABLE: phosphorylation enrichment
OBSERVED_VALUE: 0.42

SEQUENCE: IDSTPYRQWYE [RPS8_Y109]
TEST_TARGET: c-Src
OBSERVABLE: phosphorylation enrichment
OBSERVED_VALUE: 0.606

SEQUENCE: SVVVPYEPPEI [TP53_Y220_V225I]
TEST_TARGET: c-Src
OBSERVABLE: phosphorylation enrichment
OBSERVED_VALUE: 0.447

SEQUENCE: LVRPPYSFLAL [FOXI1_Y126_S129L_YF]
TEST_TARGET: c-Src
OBSERVABLE: phosphorylation enrichment
OBSERVED_VALUE: 0.525

SEQUENCE: FDCKWYIPLTD [BCR_Y756_YF]
TEST_TARGET: c-Src
OBSERVABLE: phosphorylation enrichment
OBSERVED_VALUE: 0.466
